System: MOLT-4
assay_protocol: NCI tumour cell line growth inhibition, 48 h
The source made the active and inactive calls. Cut-off read from the data, not from the text of the source: active = GI50 up to about 1.1 µM and inactive = higher.
Your answer must be one of the following: 1.0 (active), 0.0 (inactive)

Past entries and their recorded results:
[[record]]
compound = "Cc1ccc(N2C3=C(CC4=C2CC(C)(C)CC4=O)C(=O)CC(C)(C)C3)cc1"
class_assignment = 0.0

[[record]]
compound = "CCOC(=O)[C@]12C(=C(c3ccccc3)O[C@H]3C=CCC[C@H]31)C(=O)C(=O)N2c1ccccc1"
class_assignment = 0.0

[[record]]
compound = "O=[N+]([O-])c1cccc(C(O)/C(=N/Nc2ccccc2)C2Nc3ccc([N+](=O)[O-])cc3N=C2O)c1 (configuration not stated)"
class_assignment = 0.0


// switching to the query compound
For CC(=O)OC1CC2C(=O)C(=O)C1(C)C2(C)C (configuration not stated) , which call appears in the assay record?
0.0
